Data provenance is PubChem BioAssay AID720706.

Test: GFP drop in mixed WT/humanized-ribosome E. coli culture – GFP/RFP fluorescence, OD600, single point, bacterial rRNA inhibitor project, primary screen (AID 720706)
Conditions: E. coli WT GFP vs humanized-ribosome RFP mutants, 24 h; stronger effect = lower value, DMSO median 0, no signal -100
The whole screen tested about 350,000 compounds, of which about 5,500 (1.6%) were called active. Shown is part of a subset that was picked to be rich in actives.
MEASURED_METRIC: GFP signal change (wild-type ribosome) (%)

COc1cccc(NC(=O)N[C@H]2C=C[C@@H](CC(=O)Nc3ccc(-c4ccccc4)cc3)O[C@@H]2CO)c1 = -12.2
O=C(NCc1nnc(SCC(=O)N2CCC(Cc3ccccc3)CC2)o1)c1ccco1 = -22.9
COc1ccc2nc(NC(=O)NC3CCCCC3)sc2c1 = -22.5
O=C(Cc1cccc2ccccc12)NNC(=O)Nc1ccc(Cl)cc1 = -29.7
CCc1ccccc1NC(=O)CN(C)C(=O)c1cc(C2CC2)nn1-c1ccccc1 = -2.02
COc1cccc(NC(=O)CN(C)C(=O)c2cc(C3CC3)nn2-c2ccccc2)c1 = -29.5
CO[C@@H]1CN(C)C(=O)c2ccc(NC(=O)NC(C)C)cc2OC[C@@H](C)N(C)C[C@H]1C = 2.58
COc1ccc(-c2ccc([C@@H]3[C@@H](CO)N4C(=O)CN(Cc5ccccc5)C[C@@H]34)cc2)cc1 = 0.0065
O=C([C@@H]1[C@@H](CO)[C@@H]2Cn3c(ccc(C4=CCCCC4)c3=O)[C@H]1N2Cc1nccs1)N1CCCCC1 = -2.47
C[C@@H]1CN([C@@H](C)CO)S(=O)(=O)c2ccc(/C=C/c3ccccc3)cc2O[C@@H]1CN(C)C(=O)Nc1cc(F)ccc1F = -1.81
O=C(NCc1nnc(SCC(=O)N2CCCCCC2)o1)c1ccc(F)cc1 = 3.73
COc1ccc(C(=O)NC(=S)NC2CCCCC2)cc1 = -49.8
Cn1c(CNC(=O)c2ccco2)nnc1SCC(=O)N1CCN(c2ccccc2)CC1 = 4.73
CC(C)NC(=O)Nc1ccc2c(c1)C(=O)N([C@@H](C)CO)C[C@H](C)[C@@H](CN(C)Cc1ccc(C(=O)O)cc1)OCCCC[C@H](C)O2 = -0.801
C[C@H](CO)N1C[C@H](C)[C@@H](CN(C)S(=O)(=O)c2ccc(Cl)cc2)Oc2ccc(NS(=O)(=O)c3cccs3)cc2CC1=O = -3.83
Cc1ccc(-c2csc(NC(=O)C3=COCCO3)n2)cc1C = -32
Cc1noc(C)c1NC(=O)Nc1ccc2c(c1)C(=O)N([C@H](C)CO)C[C@@H](C)[C@H](CN(C)Cc1ccncc1)O2 = 0.165
O=C(O)Cc1ccc(NC(=O)Nc2cccc3ccccc23)cc1 = -0.412
